Values from the OPERA property sets (Mansouri et al. 2018)

The entries below come with measured logP values attached.
Property Name: logP

> print(dat)
                                    compound  endpoint.result
 1  CCCCN(CCCC)CC(=O)NC1COc2ccc(C)cc21 (centres undefined)             4.43
 2  Cc1ccc2c(c1)C(NC(=O)CN1CCCC1)CO2 (centres undefined)             2.24
 3  O=C(CN1CCOCC1)NC1COc2ccccc21 (centres undefined)             0.81
 4  CCCCN(CCCC)CC(=O)NC1COc2ccccc21 (centres undefined)             4.15
 5  O=C(CN1CCCCC1)NC1COc2ccc(Cl)cc21 (centres undefined)             3.01
 6  CCCCN(CCCC)CC(=O)NC1COc2ccc(Cl)cc21 (centres undefined)             4.44
 7  CCCCN(CCCC)CC(=O)NC1COc2cc(OC)ccc21 (centres undefined)             4.24
 8  CCN(CC)CC(=O)NC1COc2ccc(C)cc21 (centres undefined)             2.69
 9  O=C(CN1CCCC1)NC1COc2ccc(Cl)cc21 (centres undefined)             2.47
10  CCN(CC)CC(=O)NC1COc2ccccc21 (centres undefined)              2.2
11  O=C(CN1CCCC1)NC1COc2ccccc21 (centres undefined)             1.76
12  COc1ccc2c(c1)OCC2NC(=O)CN1CCCCC1 (centres undefined)             2.41
13  O=C(CN1CCCCC1)NC1COc2ccccc21 (centres undefined)              2.3
14  CCN(CC)CC(=O)NC1COc2ccc(Cl)cc21 (centres undefined)             2.88
15  O=C(CN1CCOCC1)NC1COc2ccc(Cl)cc21 (centres undefined)             1.55
16  COc1ccc2c(c1)OCC2NC(=O)CN1CCOCC1 (centres undefined)             0.92
17  COc1ccc2c(c1)OCC2NC(=O)CN1CCCC1 (centres undefined)             1.92
18  Cc1ccc2c(c1)C(NC(=O)CN1CCOCC1)CO2 (centres undefined)             1.38
19  Cc1ccc2c(c1)C(NC(=O)CN1CCCCC1)CO2 (centres undefined)             2.78
